# Test system: NCI-H2009
# Procedure text: relative viability (nuclei count vs DMSO), 5 days (fraction); higher = more cells survive
# Conditions: first compound 0.02 µM
Property name: relative viability
Answer using only a numeral; do not append any unit.

What value of measured relative viability is listed for CC(=O)O[C@@]12CO[C@@H]1C[C@H](O)[C@@]1(C)C(=O)[C@H](O)C3=C(C)[C@@H](OC(=O)[C@H](O)[C@@H](NC(=O)OC(C)(C)C)c4ccccc4)C[C@@](O)([C@@H](OC(=O)c4ccccc4)[C@H]21)C3(C)C [Docetaxel] + Cc1nc(NC(=O)N2CCC[C@H]2C(N)=O)sc1-c1ccnc(C(C)(C)C(F)(F)F)c1 [Alpelisib] (partner 2 µM) ?
0.157

What value of measured relative viability is listed for CC(=O)O[C@@]12CO[C@@H]1C[C@H](O)[C@@]1(C)C(=O)[C@H](O)C3=C(C)[C@@H](OC(=O)[C@H](O)[C@@H](NC(=O)OC(C)(C)C)c4ccccc4)C[C@@](O)([C@@H](OC(=O)c4ccccc4)[C@H]21)C3(C)C [Docetaxel] + CS(=O)(=O)CCNCc1ccc(-c2ccc3ncnc(Nc4ccc(OCc5cccc(F)c5)c(Cl)c4)c3c2)o1 [Lapatinib] (partner 2 µM) ?
0.12

What value of measured relative viability is listed for CC(=O)O[C@@]12CO[C@@H]1C[C@H](O)[C@@]1(C)C(=O)[C@H](O)C3=C(C)[C@@H](OC(=O)[C@H](O)[C@@H](NC(=O)OC(C)(C)C)c4ccccc4)C[C@@](O)([C@@H](OC(=O)c4ccccc4)[C@H]21)C3(C)C [Docetaxel] + CC(=O)c1c(C)c2cnc(Nc3ccc(N4CCNCC4)cn3)nc2n(C2CCCC2)c1=O [Palbociclib] (partner 0.5 µM) ?
0.127

---

# Test system: LCLC-97TM1
# Procedure text: relative viability (nuclei count vs DMSO), 5 days (fraction); higher = more cells survive
# Conditions: first compound 0.1581 µM
Property name: relative viability
Answer using only a numeral; do not append any unit.

Recorded relative viability, per entry:
>  <Compound>
COc1cc2nccc(Oc3ccc(NC(=O)Nc4cc(C)on4)c(Cl)c3)c2cc1OC [Tivozanib] + Cc1cc(Nc2cc(N3CCN(C)CC3)nc(Sc3ccc(NC(=O)C4CC4)cc3)n2)n[nH]1 [Tozasertib] (partner 0.1 µM)

>  <relative viability>
0.357

$$$$
>  <Compound>
COc1cc2nccc(Oc3ccc(NC(=O)Nc4cc(C)on4)c(Cl)c3)c2cc1OC [Tivozanib] + CCNC(=O)c1noc(-c2cc(C(C)C)c(O)cc2O)c1-c1ccc(CN2CCOCC2)cc1 [Luminespib] (partner 0.01 µM)

>  <relative viability>
0.898

$$$$

Now for the compound whose relative viability we want.
What value of measured relative viability is listed for Nc1ccn([C@@H]2O[C@H](CO)[C@@H](O)[C@@H]2O)c(=O)n1 [Cytarabine] + Nc1nc2[nH]cc(CCc3ccc(C(=O)N[C@@H](CCC(=O)O)C(=O)O)cc3)c2c(=O)[nH]1 [Pemetrexed] (partner 0.2 µM) ?
0.108

---

# Tested on: NCI-H596
# Procedure text: relative viability (nuclei count vs DMSO), 5 days (fraction); higher = more cells survive
# Conditions: first compound 0.000632 µM
Property name: relative viability
Answer using only a numeral; do not append any unit.

Recorded relative viability, per entry:
>  <Molecule>
CC(=O)O[C@@]12CO[C@@H]1C[C@H](O)[C@@]1(C)C(=O)[C@H](O)C3=C(C)[C@@H](OC(=O)[C@H](O)[C@@H](NC(=O)OC(C)(C)C)c4ccccc4)C[C@@](O)([C@@H](OC(=O)c4ccccc4)[C@H]21)C3(C)C [Docetaxel] + Nc1ncn([C@H]2C[C@H](O)[C@@H](CO)O2)c(=O)n1 [Decitabine] (partner 2 µM)

>  <relative viability>
1.01

$$$$
>  <Molecule>
CC(=O)O[C@@]12CO[C@@H]1C[C@H](O)[C@@]1(C)C(=O)[C@H](O)C3=C(C)[C@@H](OC(=O)[C@H](O)[C@@H](NC(=O)OC(C)(C)C)c4ccccc4)C[C@@](O)([C@@H](OC(=O)c4ccccc4)[C@H]21)C3(C)C [Docetaxel] + N=C(N)NC(=N)NCCc1ccccc1 [Phenformin] (partner 250 µM)

>  <relative viability>
0.773

$$$$
>  <Molecule>
CC(=O)O[C@@]12CO[C@@H]1C[C@H](O)[C@@]1(C)C(=O)[C@H](O)C3=C(C)[C@@H](OC(=O)[C@H](O)[C@@H](NC(=O)OC(C)(C)C)c4ccccc4)C[C@@](O)([C@@H](OC(=O)c4ccccc4)[C@H]21)C3(C)C [Docetaxel] + C[C@@H](Oc1cc(-c2cnn(C3CCNCC3)c2)cnc1N)c1c(Cl)ccc(F)c1Cl [Crizotinib] (partner 1 µM)

>  <relative viability>
0.798

$$$$

Now for the molecule whose relative viability we want.
What value of measured relative viability is listed for CC(=O)O[C@@]12CO[C@@H]1C[C@H](O)[C@@]1(C)C(=O)[C@H](O)C3=C(C)[C@@H](OC(=O)[C@H](O)[C@@H](NC(=O)OC(C)(C)C)c4ccccc4)C[C@@](O)([C@@H](OC(=O)c4ccccc4)[C@H]21)C3(C)C [Docetaxel] + Cc1nc(NC(=O)N2CCC[C@H]2C(N)=O)sc1-c1ccnc(C(C)(C)C(F)(F)F)c1 [Alpelisib] (partner 2 µM) ?
0.516

---

# Test system: HCC-78
# Procedure text: relative viability (nuclei count vs DMSO), 5 days (fraction); higher = more cells survive
# Conditions: first compound 0.000632 µM
Here, each record is paired with measured relative viability data.
Answer using only a numeral; do not append any unit.

>  <Molecule>
CC(=O)O[C@@]12CO[C@@H]1C[C@H](O)[C@@]1(C)C(=O)[C@H](O)C3=C(C)[C@@H](OC(=O)[C@H](O)[C@@H](NC(=O)OC(C)(C)C)c4ccccc4)C[C@@](O)([C@@H](OC(=O)c4ccccc4)[C@H]21)C3(C)C [Docetaxel] + CS(=O)(=O)CCNCc1ccc(-c2ccc3ncnc(Nc4ccc(OCc5cccc(F)c5)c(Cl)c4)c3c2)o1 [Lapatinib] (partner 2 µM)

>  <Numeric result>
0.634

$$$$

What value of measured relative viability is listed for CC(=O)O[C@@]12CO[C@@H]1C[C@H](O)[C@@]1(C)C(=O)[C@H](O)C3=C(C)[C@@H](OC(=O)[C@H](O)[C@@H](NC(=O)OC(C)(C)C)c4ccccc4)C[C@@](O)([C@@H](OC(=O)c4ccccc4)[C@H]21)C3(C)C [Docetaxel] + O=C(CCCCCCC(=O)Nc1ccccc1)NO [Vorinostat] (partner 1 µM) ?
0.374

What value of measured relative viability is listed for CC(=O)O[C@@]12CO[C@@H]1C[C@H](O)[C@@]1(C)C(=O)[C@H](O)C3=C(C)[C@@H](OC(=O)[C@H](O)[C@@H](NC(=O)OC(C)(C)C)c4ccccc4)C[C@@](O)([C@@H](OC(=O)c4ccccc4)[C@H]21)C3(C)C [Docetaxel] + CC(C)C[C@H](NC(=O)[C@H](Cc1ccccc1)NC(=O)c1cnccn1)B(O)O [Bortezomib] (partner 0.002 µM) ?
0.524

What value of measured relative viability is listed for CC(=O)O[C@@]12CO[C@@H]1C[C@H](O)[C@@]1(C)C(=O)[C@H](O)C3=C(C)[C@@H](OC(=O)[C@H](O)[C@@H](NC(=O)OC(C)(C)C)c4ccccc4)C[C@@](O)([C@@H](OC(=O)c4ccccc4)[C@H]21)C3(C)C [Docetaxel] + C[C@]1(O)C[C@@H](c2nc(-c3ccc4ccc(-c5ccccc5)nc4c3)c3c(N)nccn32)C1 [Linsitinib] (partner 1 µM) ?
0.429

---

# Tested on: NCI-H322M
# Procedure text: relative viability (nuclei count vs DMSO), 5 days (fraction); higher = more cells survive
# Conditions: first compound 8 µM
Here, each record is paired with measured relative viability data.
Answer using only a numeral; do not append any unit.

>  <Molecule>
O=c1[nH]c2ccccc2n1C1CCN(CCCC(c2ccc(F)cc2)c2ccc(F)cc2)CC1 [Pimozide] + Cc1nc(NC(=O)N2CCC[C@H]2C(N)=O)sc1-c1ccnc(C(C)(C)C(F)(F)F)c1 [Alpelisib] (partner 2 µM)

>  <relative viability>
0.716

$$$$

Now for the molecule whose relative viability we want.
What value of measured relative viability is listed for O=c1[nH]c2ccccc2n1C1CCN(CCCC(c2ccc(F)cc2)c2ccc(F)cc2)CC1 [Pimozide] + Nc1nc2[nH]cc(CCc3ccc(C(=O)N[C@@H](CCC(=O)O)C(=O)O)cc3)c2c(=O)[nH]1 [Pemetrexed] (partner 0.2 µM) ?
0.609

---

# Test system: NCI-H322M
# Procedure text: relative viability (nuclei count vs DMSO), 5 days (fraction); higher = more cells survive
# Conditions: first compound 0.1581 µM
Property name: relative viability

Recorded relative viability, per entry:
>  <Compound>
COc1cc2nccc(Oc3ccc(NC(=O)Nc4cc(C)on4)c(Cl)c3)c2cc1OC [Tivozanib] + CC(=O)c1c(C)c2cnc(Nc3ccc(N4CCNCC4)cn3)nc2n(C2CCCC2)c1=O [Palbociclib] (partner 0.5 µM)

>  <relative viability>
0.538

$$$$
>  <Compound>
COc1cc2nccc(Oc3ccc(NC(=O)Nc4cc(C)on4)c(Cl)c3)c2cc1OC [Tivozanib] + CS(=O)(=O)CCNCc1ccc(-c2ccc3ncnc(Nc4ccc(OCc5cccc(F)c5)c(Cl)c4)c3c2)o1 [Lapatinib] (partner 2 µM)

>  <relative viability>
0.525

$$$$

What value of measured relative viability is listed for COc1cc2nccc(Oc3ccc(NC(=O)Nc4cc(C)on4)c(Cl)c3)c2cc1OC [Tivozanib] + Cc1nc(NC(=O)N2CCC[C@H]2C(N)=O)sc1-c1ccnc(C(C)(C)C(F)(F)F)c1 [Alpelisib] (partner 2 µM) ?
0.756

What value of measured relative viability is listed for Nc1ccn([C@@H]2O[C@H](CO)[C@@H](O)[C@@H]2O)c(=O)n1 [Cytarabine] + Nc1nc2[nH]cc(CCc3ccc(C(=O)N[C@@H](CCC(=O)O)C(=O)O)cc3)c2c(=O)[nH]1 [Pemetrexed] (partner 0.2 µM) ?
0.408
